meta.source: the supplement of paper PMC5998384

Test system: HeLa Kyoto
Assay: solubility change mitosis vs G1/S (difference of NP-40 vs SDS log2 ratios) (log2 ratio difference); higher = more soluble in mitosis
I'd be grateful if you could share measured solubility change mitosis (log2) for these entries.

Item: MGGSGSRLSKELLAEYQDLTFLTKQEILLAHRRFCELLPQEQRSVESSLRAQVPFEQILSLPELKANPFKERICRVFSTSPAKDSLSFEDFLDLLSVFSDTATPDIKSHYAFRIFDFDDDGTLNREDLSRLVNCLTGEGEDTRLSASEMKQLIDNILEESDIDRDGTINLSEFQHVISRSPDFASSFKIVL [CIB1] Test system: HeLa Kyoto Read-out: solubility change mitosis (log2) Value: ?
-0.0256

Give recorded solubility change mitosis (log2) with HeLa Kyoto for the following sequence: MVRTKTWTLKKHFVGYPTNSDFELKTAELPPLKNGEVLLEALFLTVDPYMRVAAKRLKEGDTMMGQQVAKVVESKNVALPKGTIVLASPGWTTHSISDGKDLEKLLTEWPDTIPLSLALGTVGMPGLTAYFGLLEICGVKGGETVMVNAAAGAVGSVVGQIAKLKGCKVVGAVGSDEKVAYLQKLGFDVVFNYKTVESLEETLKKASPDGYDCYFDNVGGEFSNTVIGQMKKFGRIAICGAISTYNRTGPLPPGPPPEIVIYQELRMEAFVVYRWQGDARQKALKDLLKWVLEGKIQYKEYIIEGFENMPAAFMGMLKGDNLGKTIVKA [PTGR1]
-0.225

Checklist item: solubility change mitosis (log2) tested on HeLa Kyoto, entry MTRHGKNCTAGAVYTYHEKKKDTAASGYGTQNIRLSRDAVKDFDCCCLSLQPCHDPVVTPDGYLYEREAILEYILHQKKEIARQMKAYEKQRGTRREEQKELQRAASQDHVRGFLEKESAIVSRPLNPFTAKALSGTSPDDVQPGPSVGPPSKDKDKVLPSFWIPSLTPEAKATKLEKPSRTVTCPMSGKPLRMSDLTPVHFTPLDSSVDRVGLITRSERYVCAVTRDSLSNATPCAVLRPSGAVVTLECVEKLIRKDMVDPVTGDKLTDRDIIVLQRGGTGFAGSGVKLQAEKSRPVMQA [NOSIP] , value?
-0.163

###

Test system: HeLa Kyoto
Assay: solubility change mitosis vs G1/S (difference of NP-40 vs SDS log2 ratios) (log2 ratio difference); higher = more soluble in mitosis
MEASURED METRIC: solubility change mitosis (log2)
// return a plain number; no unit text

# input sequence: MAAGVDCGDGVGARQHVFLVSEYLKDASKKMKNGLMFVKLVNPCSGEGAIYLFNMCLQQLFEVKVFKEKHHSWFINQSVQSGGLLHFATPVDPLFLLLHYLIKADKEGKFQPLDQVVVDNVFPNCILLLKLPGLEKLLHHVTEEKGNPEIDNKKYYKYSKEKTLKWLEKKVNQTVAALKTNNVNVSSRVQSTAFFSGDQASTDKEEDYIRYAHGLISDYIPKELSDDLSKYLKLPEPSASLPNPPSKKIKLSDEPVEAKEDYTKFNTKDLKTEKKNSKMTAAQKALAKVDKSGMKSIDTFFGVKNKKKIGKV [RNASEH2B] ; wanted: its solubility change mitosis (log2)
-0.0965

Can you share its solubility change mitosis (log2)? I mean this sequence: MCGRTSCHLPRDVLTRACAYQDRRGQQRLPEWRDPDKYCPSYNKSPQSNSPVLLSRLHFEKDADSSERIIAPMRWGLVPSWFKESDPSKLQFNTTNCRSDTVMEKRSFKVPLGKGRRCVVLADGFYEWQRCQGTNQRQPYFIYFPQIKTEKSGSIGAADSPENWEKVWDNWRLLTMAGIFDCWEPPEGGDVLYSYTIITVDSCKGLSDIHHRMPAILDGEEAVSKWLDFGEVSTQEALKLIHPTENITFHAVSSVVNNSRNNTPECLAPVDLVVKKELRASGSSQRMLQWLATKSPKKEDSKTPQKEESDVPQWSSQFLQKSPLPTKRGTAGLLEQWLKREKEEEPVAKRPYSQ [HMCES]
-0.0383

Return reported solubility change mitosis (log2); argument: MPVAGSELPRRPLPPAAQERDAEPRPPHGELQYLGQIQHILRCGVRKDDRTGTGTLSVFGMQARYSLRDEFPLLTTKRVFWKGVLEELLWFIKGSTNAKELSSKGVKIWDANGSRDFLDSLGFSTREEGDLGPVYGFQWRHFGAEYRDMESDYSGQGVDQLQRVIDTIKTNPDDRRIIMCAWNPRDLPLMALPPCHALCQFYVVNSELSCQLYQRSGDMGLGVPFNIASYALLTYMIAHITGLKPGDFIHTLGDAHIYLNHIEPLKIQLQREPRPFPKLRILRKVEKIDDFKAEDFQIEGYNPHPTIKMEMAV [TYMS]
-0.0717

Recorded solubility change mitosis (log2) of MAPLDLDKYVEIARLCKYLPENDLKRLCDYVCDLLLEESNVQPVSTPVTVCGDIHGQFYDLCELFRTGGQVPDTNYIFMGDFVDRGYYSLETFTYLLALKAKWPDRITLLRGNHESRQITQVYGFYDECQTKYGNANAWRYCTKVFDMLTVAALIDEQILCVHGGLSPDIKTLDQIRTIERNQEIPHKGAFCDLVWSDPEDVDTWAISPRGAGWLFGAKVTNEFVHINNLKLICRAHQLVHEGYKFMFDEKLVTVWSAPNYCYRCGNIASIMVFKDVNTREPKLFRAVPDSERVIPPRTTTPYFL [PPP6C] , please.
-0.154

Please look up its solubility change mitosis (log2): MLSAASRVVSRAAVHCALRSPPPEARALAMSRPPPPRVASVLGTMEMGRRMDAPASAAAVRAFLERGHTELDTAFMYSDGQSETILGGLGLGLGGGDCRVKIATKANPWDGKSLKPDSVRSQLETSLKRLQCPQVDLFYLHAPDHGTPVEETLHACQRLHQEGKFVELGLSNYASWEVAEICTLCKSNGWILPTVYQGMYNATTRQVETELFPCLRHFGLRFYAYNPLAGGLLTGKYKYEDKDGKQPVGRFFGNSWAETYRNRFWKEHHFEAIALVEKALQAAYGASAPSVTSAALRWMYHHSQLQGAHGDAVILGMSSLEQLEQNLAATEEGPLEPAVVDAFNQAWHLVAHECPNYFR [AKR7A2]
-0.121

###

System: HeLa Kyoto
Assay: melting temperature (median over replicates), in situ; higher = more thermally stable
Conditions: cell cycle stage: G1/S
Task for the reader: assign each of the following sequences its reported melting temperature.
State the answer as a number, implicitly in °C.

Fill in the blank: the reported melting temperature of MSEVKSRKKSGPKGAPAAEPGKRSEGGKTPVARSSGGGGWADPRTCLSLLSLGTCLGLAWFVFQQSEKFAKVENQYQLLKLETNEFQQLQSKISLISEKWQKSEAIMEQLKSFQIIAHLKRLQEEINEVKTWSNRITEKQDILNNSLTTLSQDITKVDQSTTSMAKDVGLKITSVKTDIRRISGLVTDVISLTDSVQELENKIEKVEKNTVKNIGDLLSSSIDRTATLRKTASENSQRINSVKKTLTELKSDFDKHTDRFLSLEGDRAKVLKTVTFANDLKPKVYNLKKDFSRLEPLVNDLTLRIGRLVTDLLQREKEIAFLSEKISNLTIVQAEIKDIKDEIAHISDMN [IKBIP] is ____.
54.1

Given the sequence MYLQVETRTSSRLHLKRAPGIRSWSLLVGILSIGLAAAYYSGDSLGWKLFYVTGCLFVAVQNLEDWEEAIFDKSTGKVVLKTFSLYKKLLTLFRAGHDQVVVLLHDVRDVSVEEEKVRYFGKGYMVVLRLATGFSHPLTQSAVMGHRSDVEAIAKLITSFLELHCLESPTELSQSSDSEAGDPASQS [C17ORF62] , what is its reported melting temperature?
55

Need melting temperature, item MATGQKLMRAVRVFEFGGPEVLKLRSDIAVPIPKDHQVLIKVHACGVNPVETYIRSGTYSRKPLLPYTPGSDVAGVIEAVGDNASAFKKGDRVFTSSTISGGYAEYALAADHTVYKLPEKLDFKQGAAIGIPYFTAYRALIHSACVKAGESVLVHGASGGVGLAACQIARAYGLKILGTAGTEEGQKIVLQNGAHEVFNHREVNYIDKIKKYVGEKGIDIIIEMLANVNLSKDLSLLSHGGRVIVVGSRGTIEINPRDTMAKESSIIGVTLFSSTKEEFQQYAAALQAGMEIGWLKPVIGSQYPLEKVAEAHENIIHGSGATGKMILLL [CRYZ]
55.2

Name the recorded melting temperature for MASMAAAIAASRSAVMSGNRPLDDRERKRFTYFSSLSPMARKIMQDKEKIREKYGPEWARLPPAQQDEIIDRCLVGPRAPAPRDPGDSEELTRFPGLRGPTGQKVVRFGDEDLTWQDEHSAPFSWETKSQMEFSISALSIQEPSNGTAASEPRPLSKASQGSQALKSSQGSRSSSLDALGPTRKEEEASFWKINAERSRGEGPEAEFQSLTPSQIKSMEKGEKVLPPCYRQEPAPKDREAKVERPSTLRQEQRPLPNVSTERERPQPVQAFSSALHEAAPSQLEGKLPSPDVRQDDGEDTLFSEPKFAQVSSSNVVLKTGFDFLDNW [C1ORF198] .
51.6

Recorded melting temperature for MAAGIVASRRLRDLLTRRLTGSNYPGLSISLRLTGSSAQEEASGVALGEAPDHSYESLRVTSAQKHVLHVQLNRPNKRNAMNKVFWREMVECFNKISRDADCRAVVISGAGKMFTAGIDLMDMASDILQPKGDDVARISWYLRDIITRYQETFNVIERCPKPVIAAVHGGCIGGGVDLVTACDIRYCAQDAFFQVKEVDVGLAADVGTLQRLPKVIGNQSLVNELAFTARKMMADEALGSGLVSRVFPDKEVMLDAALALAAEISSKSPVAVQSTKVNLLYSRDHSVAESLNYVASWNMSMLQTQDLVKSVQATTENKELKTVTFSKL [ECH1] , please?
53.4
